We begin with a simple list: items and their reported viability, T/C.
System: SW 1271 complex tumor spheroid viability
Test: Anticancer human tumor SW 1271 cell line growth inhibition;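 also: spheroids exposed to agents for seven days before readout; percent of DMSO vehicle control luminescence so 100% = vehicle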
Conditions: second compound 0.003 µM; first compound 3.16 µM; active compounds read low
Field: numeric (%). Do not append units.

Examples with their reported viability, T/C follow.
Compound: [2H]c1nc(C)nc([2H])c1-c1cc(NC[C@@H](C)c2cccc3c(C(=O)NC)ccnc23)ncn1 + CC[C@@]1(O)C(=O)OCc2c1cc1n(c2=O)Cc2cc3c(CN(C)C)c(O)ccc3nc2-1
viability, T/C [%]: 88.9
//
Compound: CC(C)n1c(=O)n(C)c2cnc3cc(F)c(-c4ccc(OCCCN5CCCCC5)nc4)cc3c21 + COc1cc2c(cc1O)CCNC21CSC2c3c(OC(C)=O)c(C)c4c(c3C(COC1=O)N1C(O)C3Cc5cc(C)c(OC)c(O)c5C(C21)N3C)OCO4
viability, T/C [%]: 0.1
//
Compound: Cc1cc(C)c(CNC(=O)c2cc(-c3ccc(CN4CCOCC4)cc3)cc3c2cnn3C2CCCC2)c(=O)[nH]1 + COc1cc2c(cc1O)CCNC21CSC2c3c(OC(C)=O)c(C)c4c(c3C(COC1=O)N1C(O)C3Cc5cc(C)c(OC)c(O)c5C(C21)N3C)OCO4
viability, T/C [%]: 0.21
//
Compound: COc1cc(C)[nH]c(=O)c1CN1CCc2c(Cl)cc(C(OC)C3COC3)c(Cl)c2C1=O (configuration not stated) + COc1cc2c(cc1O)CCNC21CSC2c3c(OC(C)=O)c(C)c4c(c3C(COC1=O)N1C(O)C3Cc5cc(C)c(OC)c(O)c5C(C21)N3C)OCO4
viability, T/C [%]: 0.11
//
Compound: COc1ccc([C@@H](O)c2cc(-c3ncnc4cc(N5CCOCC5)ccc34)c(F)cc2Cl)nn1 + CC[C@@]1(O)C(=O)OCc2c1cc1n(c2=O)Cc2cc3c(CN(C)C)c(O)ccc3nc2-1
viability, T/C [%]: 26.9

Form field viability, T/C, entry [2H]c1nc(C)nc([2H])c1-c1cc(NC[C@@H](C)c2cccc3c(C(=O)NC)ccnc23)ncn1 + COc1cc2c(cc1O)CCNC21CSC2c3c(OC(C)=O)c(C)c4c(c3C(COC1=O)N1C(O)C3Cc5cc(C)c(OC)c(O)c5C(C21)N3C)OCO4 : 0.09

Form field viability, T/C, entry CC1COCCN1c1cc(-c2ccnn2C)c2ccnc(-c3ccn[nH]3)c2n1 (configuration not stated) + COc1cc2c(cc1O)CCNC21CSC2c3c(OC(C)=O)c(C)c4c(c3C(COC1=O)N1C(O)C3Cc5cc(C)c(OC)c(O)c5C(C21)N3C)OCO4 : 0.09

Attribution: PubChem BioAssay AID1845215
